Values were extracted from patent US8486996B2.

assay.procedure: MTS proliferation assay (72 h read-out)
Type: cell-based
assay.context: MRC5 cells
value.kind: IC50

See these solved cases before continuing.
In [3]: df
Out[3]:
                                   molecule  value_kind  test_result
0  COc1ccc2oc(C(=O)c3cccnc3N3CCCCC3)cc2c1 [Example 92]        IC50       > 1 µM
1  Nc1c(C(=O)c2ccccc2OCCN2CCOCC2)oc2ccc(Cl)cc12        IC50       > 1 µM

Pending molecule:
Ask: What value of IC50 has been recorded for this entry: `C#CCOc1ccccc1C(=O)c1oc2ccc(Cl)cc2c1N`
Reply: 0.1 to 1 µM

---

// melting point lookup, one value per entry

Example results:
>>> df
                                   molecule    test_result
0         CCOc1ccccc1C(=O)c1oc2cnc(C)cc2c1N         168 °C
1    CCOc1c(OC)cccc1C(=O)c1oc2ccc(Cl)cc2c1N  121 to 124 °C
2            CCOc1ccccc1C(=O)c1sc2ncccc2c1N  138 to 142 °C
3      CCOc1ccc(F)cc1C(=O)c1oc2cnc(C)cc2c1N         162 °C
4     CCOc1c(C)cccc1C(=O)c1oc2ccc(Cl)cc2c1N          54 °C
5  Cc1ccc(OC(C)C)c(C(=O)c2oc3ccc(Cl)cc3c2N)c1  110 to 112 °C

Ask: If you can, please state the reported melting point value of `CCOc1ccc(F)cc1C(=O)c1sc2ncc(N)cc2c1N` .
Reply: 80 °C

Ask: Follow-up item: `CCOc1ccc(F)cc1C(=O)c1oc2ccc(Cl)cc2c1N`
Reply: 132 to 134 °C

Ask: // repeat for `CCOc1ccc(Cl)cc1C(=O)c1oc2ccc(Cl)cc2c1N` and report
Reply: 140 to 142 °C

Ask: Same thing, different compound: `CCOc1ccc(Cl)cc1C(=O)c1oc2nc(C)ccc2c1N`
Reply: 174 to 176 °C

Ask: // query: `CCOc1ccc(Cl)cc1C(=O)COc1nc(C)ccc1C#N`
Reply: 138 to 140 °C

---

System: tumor cells
assay.procedure: Mitochondrial membrane potential, JC-1 (read-out 48 h)
Format: cell-based
assay.context: Jily cells, JC-1, 48 h; read-out: Mitochondrial membrane potential (read-out 48 h) Jily
pEC50: −log10 of the molar value.
Recorded pEC50 values for a group of molecules are listed next.

In [3]: df
Out[3]:
                                molecule   test_result
0  CCOc1ccc2oc(C(=O)c3cc(F)ccc3OCC)cc2c1  7.00 to 8.00

Ask: Given the molecule `C#CCOc1ccc(OC)cc1C(=O)c1oc2ccc(Cl)cc2c1N` , what is its reported pEC50?
Reply: 6.00 to 7.00

Ask: And what about the molecule `CCOc1ccc(F)cc1C(=O)c1cc2cc(OCCN(C)C)ccc2o1` ?
Reply: < 6.00

Ask: Please give the result for `CCOc1ccccc1C(=O)c1sc2ncc(N)cc2c1N` too.
Reply: < 6.00

---

EC50 values for the compounds below.
System: tumor cells
assay.procedure: Mitochondrial membrane potential, JC-1 (read-out 48 h)
Type: cell-based
assay.context: Jily cells, JC-1, 48 h; read-out: Mitochondrial membrane potential (read-out 48 h) Jily
Description: D) Mitochondrial Membrane Potential This assay is performed in 96 well tissue culture plates. Appropriate number of cells (adherent cells: 3-5*10^3, suspension cells: 8-10*10^3) are being seeded out in 80 μl complete medium. […] The assay plates are then further incubated for 30 minutes and subsequently analyzed with a standard inverted fluorescence microscope by using the FITC and TRITC filters. […]

// worked examples, EC50 included
In [3]: df
Out[3]:
                                   compound   test_result
0  Nc1c(C(=O)c2ccccc2OCCN2CCOCC2)oc2ccc(Cl)cc12 [Example 10]     > 1000 nM
1  CCOc1ccc(F)cc1C(=O)c1oc2ccc(OC)cc2c1NC(=O)OC [Example 49]  10 to 100 nM

Ask: Look up EC50 with tumor cells for this compound: CCOc1ccccc1C(=O)c1oc2ccc(F)cc2c1N [Example 45]
Reply: > 1000 nM

Ask: Another compound to check: CCOc1ccc(F)cc1C(=O)c1sc2ncc(C#N)cc2c1N [Example 120]
Reply: 100 to 1000 nM

Ask: # repeat for Nc1c(C(=O)c2cccnc2N2CCCCC2)oc2ccc(Cl)cc12 [Example 82]
Reply: < 10 nM

Ask: Could you do the same for Nc1c(C(=O)c2ccccc2N2CCOCC2)sc2ncc([N+](=O)[O-])cc12 [Example 131] , please?
Reply: > 1000 nM

Ask: Would you mind doing CCOc1ccccc1C(=O)c1oc2ccc(Cl)cc2c1O [Example 32] as well?
Reply: > 1000 nM

Ask: Same read-out for CCOc1ccccc1C(=O)c1oc2cnc(C)cc2c1N [Example 30] ?
Reply: 100 to 1000 nM

---

Tested on: tumor cells
assay.procedure: Mitochondrial membrane potential, JC-1 (read-out 48 h)
Type: cell-based
assay.context: Jily cells, JC-1, 48 h; read-out: Mitochondrial membrane potential (read-out 48 h) Jily
pEC50: −log10 of the molar value.
value.kind: pEC50

Solved cases (6 shown):
In [3]: df
Out[3]:
                                   compound   test_result
0  Cc1cc2c(N)c(C(=O)c3ccccc3N3CCOCC3)sc2nc1C  7.00 to 8.00
1  Nc1c(C(=O)c2ccccc2OCC(F)(F)F)oc2ccc(Cl)cc12  7.00 to 8.00
2  Nc1c(C(=O)c2cccnc2N2CCCNCC2)oc2ccc(Cl)cc12        < 6.00
3   CN(C)CCOc1ccccc1C(=O)c1oc2ccc(Cl)cc2c1N        < 6.00
4  COc1ccc2oc(C(=O)c3cccnc3N3CCCC(C)C3)cc2c1 (stereo not shown)  6.00 to 7.00
5     Nc1c(C(=O)c2ccccc2N2CCCCC2)sc2ncccc12        < 6.00

Ask: Request the reported pEC50 associated with `COc1ccc2oc(C(=O)c3cc(F)ccc3N3CCCCC3)cc2c1`
Reply: 7.00 to 8.00

Ask: One more compound: COc1ccc2oc(C(=O)c3cc(F)ccc3N3CCCCC3C)cc2c1 (stereo not shown)
Reply: < 6.00

Ask: Please answer likewise for `CCOc1c(OC)cccc1C(=O)c1oc2ccc(Cl)cc2c1N`
Reply: < 6.00

Ask: Same question, `CCOc1ccc(NC(C)=O)cc1C(=O)c1oc2ccc(Cl)cc2c1N` this time
Reply: < 6.00

Ask: Same question, `COc1ccc2oc(C(=O)c3cccnc3N3CC=CCC3)cc2c1` this time
Reply: 7.00 to 8.00

Ask: Now the same for Nc1c(C(=O)c2cc(F)ccc2N2CCCCC2)oc2ccc(Cl)cc12 [Example 101]
Reply: 7.00 to 8.00

Ask: Repeat with `CCOc1ccc(F)cc1C(=O)c1oc2ccccc2c1N`
Reply: 6.00 to 7.00
